The reported numbers originate from ChEMBL document CHEMBL1201862.

# System: MDA-N
# protocol.description: NCI tumour cell line growth inhibition, 48 h
The source made the active and inactive calls. Rule as the data show it: active = GI50 up to about 1.1 µM and inactive = higher.
Labels: YES for active, NO for inactive

{"columns": ["compound", "experimental.target", "group"],
 "data": [
  ["CC[C@@]1(OC(=O)C(N)CCC(=O)O)C(=O)OCc2c1cc1n(c2=O)Cc2cc3ccccc3nc2-1 (some centres not stated)", "MDA-N", "YES"],
  ["NC(=O)CSc1c2cc(O)ccc2nc2ccc(O)cc12", "MDA-N", "NO"],
  ["COC(=O)c1cc(/C=C\\c2cc(OC)ccc2OC)ccc1OC", "MDA-N", "NO"],
  ["COc1ccc(/C=C/C(=O)Oc2ccccc2OC)cc1", "MDA-N", "NO"],
  ["NC(CSC(=O)c1ccccc1)C(=O)O (configuration not stated)", "MDA-N", "NO"],
  ["CC1(C)C(=O)N(O)C(C)(C)N1O", "MDA-N", "NO"],
  ["Cc1cc2[nH]c3[nH]c(=O)[nH]c(=O)c3c2cc1C", "MDA-N", "NO"],
  ["COC1(C)Cc2c(c(C)c(O)c3c2C(=O)C=C(Cl)C3=O)O1 (configuration not stated)", "MDA-N", "NO"],
  ["Clc1cccc2[nH]ncc12", "MDA-N", "NO"],
  ["CN(C)CCNCc1ccc2c(-c3ccccc3)nc3cc(Cl)c(Cl)cc3n12", "MDA-N", "NO"],
  ["Nc1ccc(-c2nc3ccccc3s2)cc1Br", "MDA-N", "NO"],
  ["O=[N+]([O-])c1ccc(O)c(/C=N/CC2CCCN3CCCCC23)c1 (configuration not stated)", "MDA-N", "NO"]
]}

----------
# System: M19-MEL
# protocol.description: NCI tumour cell line growth inhibition, 48 h
Activity calls are given as the source filed them. Rule as the data show it: active = GI50 up to about 1.1 µM and inactive = higher.

{"columns": ["molecule", "experimental.target", "GI50"],
 "data": [
  ["O=CC1=CCCC2(C1)OCCO2", "M19-MEL", "> 100 µM (inactive)"],
  ["CC(=O)OCC1OC(OC2C(COC(C)=O)OC(Sc3ccccc3C)C(OC(C)=O)C2OC(C)=O)C(OC(C)=O)C(OC(C)=O)C1OC(C)=O (stereo not drawn)", "M19-MEL", "> 100 µM (inactive)"],
  ["C[N+](C)(C)CC(=O)N/N=C(\\C(=O)Nc1ccc(Cl)cc1)C1C(=O)N(c2ccccc2)N=C1N (stereo not drawn)", "M19-MEL", "> 100 µM (inactive)"],
  ["COc1ccc(/C=C/C(=O)c2cc(C(=O)O)c(OC)cc2OC)cc1OC", "M19-MEL", "> 100 µM (inactive)"],
  ["O=C(O)Cc1ccccc1CCc1ccccc1Cl", "M19-MEL", "95.5 µM (inactive)"],
  ["CC(=O)OC(CC1(C)C(C)CCC23COC(=O)C2=CCCC31)c1ccoc1 (stereo not drawn)", "M19-MEL", "33.8 µM (inactive)"],
  ["Cc1ccc(NC(=O)C(=O)C2C(=O)NC(=O)NC2=O)c(C)c1", "M19-MEL", "> 100 µM (inactive)"],
  ["CCc1ccccc1NC(=O)/C(=N/O)C(C)=O", "M19-MEL", "> 100 µM (inactive)"]
]}

----------
# Test system: MDA-MB-435
# protocol.description: NCI tumour cell line growth inhibition, 48 h
Calls of active or inactive are those of the source. No stated cut-off is given here; in the data, active = GI50 up to about 1.1 µM and inactive = higher.
Labels: YES for active, NO for inactive

{"columns": ["molecule", "experimental.target", "group"],
 "data": [
  ["O=C(CSCC(=O)N/N=C\\c1cccc(Br)c1)N/N=C\\c1cccc(Br)c1", "MDA-MB-435", "NO"],
  ["C/C(=C/C(=O)Nn1c(Cc2ccccc2)n[nH]c1=O)C(=O)O", "MDA-MB-435", "NO"],
  ["O=S(=O)(O)c1cc(S(=O)(=O)O)c2c(/N=N/c3ccc(S(=O)(=O)O)c4ccccc34)c(O)ccc2c1", "MDA-MB-435", "NO"],
  ["CCOc1cc(NC(C)=O)ccc1C(=O)NN1C(=O)C(Oc2ccccc2)C1c1ccc(O)c(OC)c1 (centres undefined)", "MDA-MB-435", "NO"],
  ["CO/N=C(/C(=O)N(C(=O)/C(=N/OC)c1csc(NC(c2ccccc2)(c2ccccc2)c2ccccc2)n1)n1cnn(CC(=O)OC(C)(C)C)c1=O)c1csc(NC(c2ccccc2)(c2ccccc2)c2ccccc2)n1", "MDA-MB-435", "NO"],
  ["O=C(NCc1ccccc1)c1cnc(Cl)cn1", "MDA-MB-435", "NO"],
  ["CN(C)CCNc1ccc(C(=O)NCCCN(C)CCCNC(=O)c2ccc(NCCN(C)C)c3c(=O)c4ccccc4[nH]c23)c2[nH]c3ccccc3c(=O)c12", "MDA-MB-435", "YES"],
  ["COc1cc([N+](=O)[O-])c(S(=O)(=O)O)cc1-n1nc(C(=O)Nc2ccccc2)n[n+]1-c1cc(S(=O)(=O)[O-])c([N+](=O)[O-])cc1OC", "MDA-MB-435", "NO"],
  ["Cc1ncc(CSC(=N)N)n1Cc1ccccc1", "MDA-MB-435", "NO"],
  ["COC1(C)Cc2c(c(C)c(O)c3c2C(=O)C=C(Cl)C3=O)O1 (centres undefined)", "MDA-MB-435", "NO"],
  ["Cn1cnc([N+](=O)[O-])c1[Se]c1ncnc2nc[nH]c12", "MDA-MB-435", "NO"],
  ["O=c1c(F)cn(Cc2c(Cl)cccc2Cl)c(=O)n1Cc1c(Cl)cccc1Cl", "MDA-MB-435", "NO"],
  ["CCC1([N+](=O)[O-])CN(N=O)C1", "MDA-MB-435", "NO"],
  ["CC(C)C(/C=C/c1ccc(Cl)c(Cl)c1)=N\\NC(=O)N/N=C(/C=C/c1ccc(Cl)c(Cl)c1)C(C)C", "MDA-MB-435", "NO"],
  ["CC(C)(C)c1ccc(-c2nc3ccccc3c(=O)o2)cc1", "MDA-MB-435", "NO"],
  ["CCOC(=O)c1nnsc1NC(=O)Nc1ccc(Cc2ccc(NC(=O)Nc3snnc3C(=O)OCC)cc2)cc1", "MDA-MB-435", "NO"],
  ["CCOC(=O)N/N=C(/N)c1cccc([N+](=O)[O-])c1", "MDA-MB-435", "NO"],
  ["COc1cccc(C2CC(C)(O)Oc3cc4c(cc32)OCO4)c1O (centres undefined)", "MDA-MB-435", "NO"],
  ["Cc1ccc(-n2nnc(C(N)=O)c2O)cc1", "MDA-MB-435", "NO"]
]}

----------
# Test system: DMS-273
# protocol.description: NCI tumour cell line growth inhibition, 48 h
Calls of active or inactive are those of the source. Rule as the data show it: active = GI50 up to about 1.1 µM and inactive = higher.
value.type: GI50

{"columns": ["molecule", "value.type", "result"],
 "data": [
  ["CC(C)N1CCOC(c2ccc(O)c(O)c2)C1 (configuration not stated)", "GI50", "> 100 µM (inactive)"],
  ["O=CC1=CCCC2(C1)OCCO2", "GI50", "> 100 µM (inactive)"],
  ["Cc1cc(OCC(O)CO)ccc1Cl (configuration not stated)", "GI50", "> 100 µM (inactive)"],
  ["O=C1c2ccccc2C(=O)c2[nH]c(Cc3ccc(F)cc3)nc21", "GI50", "18.1 µM (inactive)"],
  ["CC1=C(C(=O)Nc2ccccc2C)C(c2ccccc2)C(C(=O)Nc2ccccc2C)=C(C)N1", "GI50", "49.5 µM (inactive)"],
  ["CC(C)NCCCC(C)Nc1ccnc2ccc3nn(C)nc3c12 (configuration not stated)", "GI50", "41.7 µM (inactive)"],
  ["COC(=O)[C@]12CCC(C)[C@H](C)[C@H]1C1=CCC3[C@@]4(C)CC[C@H](OC(C)=O)C(C)(C)C4CC[C@@]3(C)C1(C)C(O)C2 (some centres not stated)", "GI50", "> 100 µM (inactive)"],
  ["CC(C)(C)[C@H]1CO[C@]2(c3ccccc3)[C@@H]3C[C@@H]3C(=O)N12", "GI50", "> 100 µM (inactive)"],
  ["COc1cc(-c2ccccc2)c(OC)cc1CCl", "GI50", "> 100 µM (inactive)"],
  ["C=C1CC(CC(=O)C(C)CC2CC(=C)C(=O)O2)OC1=O (configuration not stated)", "GI50", "23.2 µM (inactive)"],
  ["O=[PH](O)c1cc2ccccc2c2ccccc12", "GI50", "> 100 µM (inactive)"],
  ["COc1ccccc1NC(=O)CC(=O)N1N=C(c2ccccc2)C(/N=N/c2ccc(Cl)cc2)C1=O (configuration not stated)", "GI50", "34.8 µM (inactive)"],
  ["O=C(Cc1nc2ccccc2s1)C(=O)Nc1cccc(Cl)c1", "GI50", "> 100 µM (inactive)"],
  ["N#CCCN(CCC#N)c1ccc(/C=C2\\N=C(c3cc([N+](=O)[O-])ccc3Cl)N(NC(=O)CC(=O)Nc3ccccc3Cl)C2=O)cc1", "GI50", "> 100 µM (inactive)"],
  ["Cc1nc2sccn2c1C(=O)NC(=O)Nc1ccc(Cl)cc1", "GI50", "74.1 µM (inactive)"],
  ["CC#CC#C/C=C1\\C=CC2(OC=CC2OC(C)=O)O1 (configuration not stated)", "GI50", "20.1 µM (inactive)"],
  ["CCc1ccccc1NC(=O)/C(=N/O)C(C)=O", "GI50", "> 100 µM (inactive)"]
]}
